biological target: UniProt Q16769
Sequence (Q16769 33-361): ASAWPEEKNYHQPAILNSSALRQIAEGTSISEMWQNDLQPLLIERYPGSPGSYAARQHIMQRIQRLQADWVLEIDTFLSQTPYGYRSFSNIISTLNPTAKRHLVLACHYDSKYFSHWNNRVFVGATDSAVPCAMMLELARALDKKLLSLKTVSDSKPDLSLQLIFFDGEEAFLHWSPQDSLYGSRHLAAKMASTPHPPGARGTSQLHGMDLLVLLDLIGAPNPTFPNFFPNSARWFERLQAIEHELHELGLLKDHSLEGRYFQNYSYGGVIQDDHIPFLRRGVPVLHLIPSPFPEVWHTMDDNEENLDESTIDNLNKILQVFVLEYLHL
pKi: −log10 of the molar value. Structures can show the parent of a compound that is named as a salt.
Parameter pKi: see the listing below.
Test readout: pKi

> print(dat)
                                   molecule  measured.number
1  Cc1cccc(Cc2c[nH]cn2)c1C [Detomidine HCl]             2.59
2  CC[C@@H]1C(=O)OC[C@@H]1Cc1cncn1C [Pilocarpine HCl]             1.88
3  O=C(/C=C/c1cccc(S(=O)(=O)Nc2ccccc2)c1)NO             2.53
4                  Cc1cnc(C(=O)O)c[n+]1[O-]             2.21
